TARGET_UNDER_TEST: BmorPBP1 immobilized on reduced graphene oxide field-effect transistor (Bombyx mori, UniProt P34174)
Construct: polyhistidine (his-tag, from pET15b) (N); made in house; host or cells: Escherichia coli
Sequence (P34174 23-164): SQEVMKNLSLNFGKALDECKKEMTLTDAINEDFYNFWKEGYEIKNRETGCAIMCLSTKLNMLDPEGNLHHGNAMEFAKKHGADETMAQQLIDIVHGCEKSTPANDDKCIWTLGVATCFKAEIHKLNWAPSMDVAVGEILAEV
ASSAY_PROTOCOL: BmorPBP1-functionalized rGO-FET biosensor (titration and kinetic runs, Langmuir model)
Type: binding
EXPERIMENTAL_PARAMETERS: immobilized protein, pH 4.0, read-out: Sensor Data Kd, Kinetics
MEASURED_METRIC: Kd

Look up Kd of CCC/C=C\C=C\CCCCCCCCCO and report it.
> 1 mM

* * *

TARGET_UNDER_TEST: BmorPBP1 immobilized on reduced graphene oxide field-effect transistor (Bombyx mori, UniProt P34174)
Construct: polyhistidine (his-tag, from pET15b) (N); made in house; host or cells: Escherichia coli
Sequence (P34174 23-164): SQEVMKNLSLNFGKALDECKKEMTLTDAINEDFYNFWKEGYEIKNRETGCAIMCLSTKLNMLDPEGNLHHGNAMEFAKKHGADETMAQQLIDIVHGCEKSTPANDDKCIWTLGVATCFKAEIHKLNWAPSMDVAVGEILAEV
ASSAY_PROTOCOL: BmorPBP1-functionalized rGO-FET biosensor (titration and kinetic runs, Langmuir model)
Format: binding
EXPERIMENTAL_PARAMETERS: Sensor Data Kd, Kinetics, immobilized protein, pH 8.0, kinetic runs, averaged results
Protocol: Reduced graphene oxide field-effect transistors (rGO-FET) were fabricated as previously described with a modified channel width of 30 µm. Electrical properties of the FET devices were tested along with the procedure. For the detection of different odorants, the rGO-based biosensors were functionalized with BmorPBP1. […]
Kindly supply the reported Kd values for the records listed here.
Answers are plain numbers, in µM.

C=CCc1ccc(O)c(OC)c1 8.1

For the molecule CC(C)=CCC/C(C)=C/CO , give its measured Kd value.
470

* * *

TARGET_UNDER_TEST: BmorPBP1 (Bombyx mori pheromone-binding protein PBP1) (Bombyx mori, UniProt P34174)
Construct: polyhistidine (his-tag, from pET15b) (N); made in house; host or cells: Escherichia coli
Sequence (P34174 23-164): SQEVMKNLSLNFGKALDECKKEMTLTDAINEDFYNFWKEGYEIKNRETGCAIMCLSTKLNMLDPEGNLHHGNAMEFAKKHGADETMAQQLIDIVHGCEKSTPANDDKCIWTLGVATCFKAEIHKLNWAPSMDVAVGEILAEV
ASSAY_PROTOCOL: Fluorescence binding assay in solution (1-NPN titration and competitive displacement)
EXPERIMENTAL_PARAMETERS: pH 7.4, protein and probe 2 μM
Protocol: Dissociation constants were measured in solution along with the widely adopted fluorescence binding assay. Spectra were recorded on a PerkinElmer FL 6500 spectrofluorometer at room temperature in a right-angle configuration, with a 1-cm light path quartz cuvette and 5-nm slits for both excitation and emission. First, the binding of BmorPBP1 to the fluorescent probe N-phenyl-1-naphthylamine (1-NPN) […] of 1-NPN in methanol to final concentrations of 2–16 μM. […]
MEASURED_METRIC: binding in solution (displacement of 1-NPN), in words

Please review the entries below; each comes with its answer.
COMPOUND	MEASUREMENT
CCC/C=C\C=C\CCCCCCCCC=O	strongest ligand
COc1nccnc1CC(C)C	poor binding
CC(C)=CCC/C(C)=C/CO	poor binding
C=CC(C)(O)CCC=C(C)C (stereo not shown)	poor binding
CCC/C=C\C=C\CCCCCCCCCO	strongest ligand

Look up binding in solution (displacement of 1-NPN), in words of CC(=O)OCCC(C)C [Isoamyl acetate, isoamyl acetate] and report it.
poor binding

The measurements presented in this section are drawn from paper PMC7827809.
